We begin with a simple list: items and their reported IC50.
biological target: CK1; test: Protein kinase catalytic activity assay, CK1; conditions: read-out: IC50 of protein kinases, CK1

compound	bound-sign	IC50, µM
CC(C)n1cnc2c(NCc3ccccc3)nc(N[C@@H](CO)C(=O)O)nc21	=	28
CC[C@@H](Nc1nc(NCc2ccccc2)c2ncn(C3CCCC3)c2n1)C(=O)O	=	17
CC[C@@H](Nc1nc(NCc2ccccc2)c2ncn(C(C)C)c2n1)C(=O)O [M3, reference compound]	>	33
CC[C@@H](Nc1nc(NCc2cccc(C(F)(F)F)c2)c2ncn(C(C)C)c2n1)C(=O)O	=	5

----------
molecular target: CDK5/p25 (Homo sapiens); settings: activator p25; read-out: IC50 of protein kinases, CDK5/p25
Sequence (Q00535 whole entry, species assumed): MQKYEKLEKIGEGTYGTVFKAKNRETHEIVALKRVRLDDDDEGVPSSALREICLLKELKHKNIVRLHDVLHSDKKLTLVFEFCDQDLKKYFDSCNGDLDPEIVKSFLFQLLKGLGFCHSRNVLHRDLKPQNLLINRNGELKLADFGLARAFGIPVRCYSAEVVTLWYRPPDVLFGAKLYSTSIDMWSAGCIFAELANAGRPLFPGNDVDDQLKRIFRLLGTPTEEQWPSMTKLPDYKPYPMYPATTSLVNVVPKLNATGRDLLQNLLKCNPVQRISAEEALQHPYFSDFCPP
Sequence (Q15078 99-307 partner limits assumed, species assumed): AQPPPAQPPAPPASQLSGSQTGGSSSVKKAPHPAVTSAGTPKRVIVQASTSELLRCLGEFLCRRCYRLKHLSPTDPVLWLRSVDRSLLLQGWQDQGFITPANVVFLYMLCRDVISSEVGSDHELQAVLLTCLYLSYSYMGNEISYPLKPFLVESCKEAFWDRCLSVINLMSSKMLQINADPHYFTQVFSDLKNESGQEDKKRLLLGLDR
pIC50: −log10 of the molar value.
We begin with a simple list: items and their reported pIC50.

query-smiles	assayed-system	pIC50
CC[C@@H](Nc1nc(NCc2cccc(Cl)c2)c2ncn(C3CCCC3)c2n1)C(=O)O	CDK5/p25 (Homo sapiens)	5.11
CC[C@@H](Nc1nc(NCc2cccc(F)c2)c2ncn(C3CCCC3)c2n1)C(=O)O	CDK5/p25 (Homo sapiens)	5.08
CC[C@@H](Nc1nc(NCc2cccc(C(F)(F)F)c2)c2ncn(C(C)C)c2n1)C(=O)O	CDK5/p25 (Homo sapiens)	4.57
CC[C@@H](Nc1nc(NCc2cccc(C(F)(F)F)c2)c2ncn(C3CCCC3)c2n1)C(=O)O	CDK5/p25 (Homo sapiens)	4.96
CC[C@@H](Nc1nc(NCc2ccccc2)c2ncn(C3CCCC3)c2n1)C(=O)O	CDK5/p25 (Homo sapiens)	4.82
CC[C@@H](Nc1nc(NCc2ccc(F)c(F)c2)c2ncn(C3CCCC3)c2n1)C(=O)O	CDK5/p25 (Homo sapiens)	4.77
CC[C@@H](Nc1nc(NCc2ccc(Cl)c(F)c2)c2ncn(C3CCCC3)c2n1)C(=O)O	CDK5/p25 (Homo sapiens)	5.20

----------
molecular target: CDK2/A (Homo sapiens); experiment: Protein kinase catalytic activity assay, CDK2/cyclin A; conditions: activator cyclin A; read-out: IC50 of protein kinases, CDK2/A
pIC50: −log10 of the molar value.
We begin with a simple list: items and their reported pIC50.

query-smiles	pIC50
CC[C@@H](Nc1nc(NCc2ccc(F)c(F)c2)c2ncn(C3CCCC3)c2n1)C(=O)O	5.29
CC[C@@H](Nc1nc(NCc2ccccc2)c2ncn(C3CCCC3)c2n1)C(=O)O	5.20
CC[C@@H](Nc1nc(NCc2ccc(Cl)c(F)c2)c2ncn(C3CCCC3)c2n1)C(=O)O	5.52
CC[C@@H](Nc1nc(NCc2cccc(F)c2)c2ncn(C3CCCC3)c2n1)C(=O)O	5.23
CC[C@@H](Nc1nc(NCc2cccc(Cl)c2)c2ncn(C3CCCC3)c2n1)C(=O)O	5.47
CC[C@@H](Nc1nc(NCc2cccc(C(F)(F)F)c2)c2ncn(C3CCCC3)c2n1)C(=O)O	5.10
CC[C@@H](Nc1nc(NCc2cccc(C(F)(F)F)c2)c2ncn(C(C)C)c2n1)C(=O)O	5.05

----------
Listed here: compounds with reported IC50 for DYRK1A (Homo sapiens).
reported-metric: IC50 (µM)

query-smiles	bound-sign	reading
CC[C@@H](Nc1nc(NCc2ccc(Cl)c(F)c2)c2ncn(C3CCCC3)c2n1)C(=O)O	=	12
CC(C)n1cnc2c(NCc3ccccc3)nc(N[C@@H](CO)C(=O)O)nc21	>	10
CC[C@@H](Nc1nc(NCc2ccc(F)c(F)c2)c2ncn(C3CCCC3)c2n1)C(=O)O	=	20
CC[C@@H](Nc1nc(NCc2cccc(F)c2)c2ncn(C3CCCC3)c2n1)C(=O)O	=	21
CC[C@@H](Nc1nc(NCc2ccccc2)c2ncn(C3CCCC3)c2n1)C(=O)O	=	21
